# target under test: MDM2 (In-house, 41 kD) (UniProt Q00987)
# Sequence (Q00987 1-125 limits assumed): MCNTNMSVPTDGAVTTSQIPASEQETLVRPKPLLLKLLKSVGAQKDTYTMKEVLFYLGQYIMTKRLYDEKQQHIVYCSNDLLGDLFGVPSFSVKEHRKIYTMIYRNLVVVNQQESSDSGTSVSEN
# assay overview: competitive fluorescence polarization on MDM2 against FAM-labeled linear peptide; grade, scale in paragraph 462
pKi: −log10 of the molar value. Bridges are numbered along the chain shown (N, C = ends). [ ]: non-standard residue; d: D form. pY = N[C@@H](Cc1ccc(OP(=O)(O)O)cc1)C(=O)O; R8 = C=CCCCCCC[C@@](C)(N)C(=O)O; S5 = C=CCCC[C@](C)(N)C(=O)O
recorded metric: pKi

Query (binder): Ac-LTF[R8]E[pY]WAQL[S5]AAAAA[dA]-NH2 (staple 4-11) [SP615, Ac-LTF$r8EpYWAQL$AAAAAa-NH2] ; field requested: pKi
> 8.00
